- Tested on: lipase
- METHOD_DESCRIPTION: Lipase/lipolysis assay (EnzChek Lipase Substrate, quenched BODIPY-fatty acid conjugate) on stored human milk; note: test concentration or dose not given here
Each record is given met if its reported Lipase (RFU) is strictly below 1000 RFU. Records at or above 1000 RFU are given not met.

[[record]]
compound = "COC(=O)[C@]1(C)CC[C@]2(C(=O)O[C@@H]3O[C@H](CO)[C@@H](O)[C@H](O)[C@H]3O)CC[C@]3(C)C(=CC[C@@H]4[C@@]5(C)C[C@H](O)[C@H](O[C@@H]6OC[C@@H](O[C@@H]7O[C@H](CO)[C@@H](O)[C@H](O)[C@H]7O)[C@H](O)[C@H]6O)[C@@](C)(CO)C5CC[C@]43C)[C@H]2C1 (stereo partly drawn) [Esculentoside H]"
class_assignment = "not met"

[[record]]
compound = "CCCCCCCCCCCCC/C=C/[C@@H](O)[C@@H](N)CO[C@@H]1O[C@H](CO)[C@@H](O)[C@H](O)[C@H]1O [Glucosylsphingosine]"
class_assignment = "met"


Next up:
Exam item: Is the reported Lipase (RFU) for COC(=O)[C@]12CCC(C)(C)C[C@H]1C1=CC[C@@H]3[C@@]4(C)CCC(=O)C(C)(C)[C@@H]4CC[C@@]3(C)[C@]1(C)CC2 [Methyl oleanonate] strictly below 1000 RFU?
Marked response: met

----------
- System: lipase
- METHOD_DESCRIPTION: Lipase/lipolysis assay (EnzChek Lipase Substrate, quenched BODIPY-fatty acid conjugate) on stored human milk; note: test concentration or dose not given here
MEASURED_METRIC: Lipase (RFU)
Numbers only, in RFU.

As a guide, the following entries are already answered.
[[record]]
molecule = "CC(C)=CCC[C@](C)(O[C@@H]1O[C@H](CO)[C@@H](O)[C@H](O)[C@H]1O)[C@H]1CC[C@]2(C)[C@@H]1[C@H](O)C[C@@H]1[C@@]3(C)CC[C@H](O)C(C)(C)[C@@H]3[C@@H](O)C[C@]12C [Ginsenoside F1]"
measured_metric = "Lipase (RFU)"
observed = 975.1974

[[record]]
molecule = "CC(C)=CCc1cc2c(cc1O)oc(=O)c1c3ccc(O)cc3oc21"
measured_metric = "Lipase (RFU)"
observed = 1084.87

[[record]]
molecule = "CCC1CCC(=O)O1 (stereo not drawn)"
measured_metric = "Lipase (RFU)"
observed = 1020.576

[[record]]
molecule = "O=c1cc(-c2ccc(O)c(O)c2)oc2cc(O[C@@H]3O[C@H](CO)[C@@H](O)[C@H](O)[C@H]3O)c(O)c(O)c12 [6-Hydroxyluteolin 7-glucoside]"
measured_metric = "Lipase (RFU)"
observed = 1135.118

[[record]]
molecule = "CCCCCC/C=C/CCCCCCCCCC(=O)O [trans-Vaccenic acid]"
measured_metric = "Lipase (RFU)"
observed = 932.0426

[[record]]
molecule = "CCOC(=O)c1ccc(O)c(OC)c1 [Ethyl Vanillate]"
measured_metric = "Lipase (RFU)"
observed = 981.4431

[[record]]
molecule = "CC(C)(O)[C@@H]1Cc2cc3ccc(=O)oc3cc2O1 [S-(+)-Marmesin]"
measured_metric = "Lipase (RFU)"
observed = 984.7966

[[record]]
molecule = "CCOP(=O)(OCC)OCC [Triethyl Phosphate]"
measured_metric = "Lipase (RFU)"
observed = 963.8293

[[record]]
molecule = "CC(=O)CCC=C(C)C"
measured_metric = "Lipase (RFU)"
observed = 1082.02

[[record]]
molecule = "CC(C)=CCC[C@](C)(O[C@@H]1O[C@H](CO)[C@@H](O)[C@H](O)[C@H]1O)[C@H]1CC[C@]2(C)[C@@H]1[C@H](O)C[C@@H]1[C@@]3(C)CC[C@H](O)C(C)(C)[C@@H]3[C@@H](O[C@@H]3O[C@H](CO)[C@@H](O)[C@H](O)[C@H]3O[C@@H]3OC[C@@H](O)[C@H](O)[C@H]3O)C[C@]12C [Notoginsenoside R1]"
measured_metric = "Lipase (RFU)"
observed = 899.6021


List reported Lipase (RFU) for each of these molecules:
1. O=C(O)C(O)Cc1c[nH]c2ccccc12 (stereo not drawn)
2. O=C(O)c1ccc(O)nc1 [6-Hydroxynicotinic acid]
3. CCO[C@@H]1O[C@H](C(=O)O)[C@@H](O)[C@H](O)[C@H]1O [Ethyl glucuronide]
4. COc1c(O)cc2oc3cc(O)c(CC=C(C)C)c(O)c3c(=O)c2c1CC=C(C)C
5. O=c1cc(-c2ccc(O)cc2)oc2cc(O)c([C@@H]3O[C@H](CO)[C@@H](O)[C@H](O)[C@H]3O[C@@H]3OC[C@H](O)[C@H](O)[C@H]3O)c(O)c12 [Isovitexin 2″-O-arabinoside]

Marked response:
[641.0066, 655.7069, 1053.076, 1061.941, 1033.269]
